Measured interaction score accompanies every entry in the list below.
TARGET ENTITY: T1, 4H2253-bA
T1 chain: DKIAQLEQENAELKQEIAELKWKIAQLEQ
ASSAY METHOD TEXT: two-hybrid library CCNG1;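 note: natural log of median RNA to DNA barcode read ratio; higher means stronger binding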
Could you keep your reply to the number by itself?

Consider the following illustrative entries.
DEIAQLEQENAELEQKIAELEWKIAQLKQ [4H166-bA] = 0.212
DKIAQLEQEIAELKQENAELKWKNAQLEQ [4H2143-bA] = -0.521
DENAQLEQENAELEQEIAELEWKIAQLKQ [4H1158-bA] = 0.12

Data point: DKIAQLEQEIAELKQKNAELEWEIAQLKQ [4H2162-bA] ; interaction score = -0.158

// recorded interaction score for DKIAQLEQENAELKQEIAELKWKIAQLEQ [4H2253-bA] : 1.28

Reported interaction score ( DKIAQLEQENAELEQKNAELKWEIAQLEQ [4H2233-bA] ) = -1.28
